Target or system: MDM2 (Homo sapiens)
Sequence (Q00987 1-125): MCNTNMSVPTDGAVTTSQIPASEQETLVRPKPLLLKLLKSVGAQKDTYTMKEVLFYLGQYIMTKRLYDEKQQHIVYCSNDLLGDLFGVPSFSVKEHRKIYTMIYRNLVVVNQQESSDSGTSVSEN
Protocol: Competitive fluorescence polarization assay for MDM2
Assay type: binding
Assay context: competitive FP assay, MDM2; read-out: IC50 (MDM2)
Where a SMILES comes first, the peptide text is derived from it. Bridges are numbered along the chain shown (N, C = ends). [ ]: non-standard residue; d: D form. R8 = C=CCCCCCC[C@@](C)(N)C(=O)O; S5 = C=CCCC[C@](C)(N)C(=O)O; Nle = CCCC[C@H](N)C(=O)O; Ac3c = NC1(C(=O)O)CC1
Test readout: IC50

# Molecule, IC50
measured = [
    ("CCCC[C@H](NC(=O)[C@H](C)NC(=O)[C@H](C)NC(=O)[C@]1(C)CCCC=CCCCCCC[C@@](C)(NC(=O)[C@H](Cc2ccccc2)NC(=O)[C@@H](NC(=O)[C@H](CC(C)C)NC(C)=O)[C@@H](C)O)C(=O)N[C@@H](C)C(=O)N(C)[C@@H](Cc2ccc(O)cc2)C(=O)N[C@@H](Cc2c[nH]c3ccccc23)C(=O)N[C@@H](C)C(=O)N[C@@H](CCC(N)=O)C(=O)N[C@@H](CC(C)C)C(=O)N1)C(=O)N[C@@H](C)C(N)=O (single isomer, unassigned) [compound 384]", "100 to 1000 nM"),
]

# evaluate next
Inquiry: I am curious: what IC50 value has been reported for CCCC[C@H](NC(=O)[C@H](C)NC(=O)[C@H](C)NC(=O)[C@]1(C)CCCC=CCCCCCC[C@@](C)(NC(=O)[C@H](Cc2ccccc2)NC(C)=O)C(=O)N[C@@H](C)C(=O)N[C@@H](Cc2ccc(O)cc2)C(=O)N[C@@H](Cc2c[nH]c3ccccc23)C(=O)N[C@@H](CCC(=O)O)C(=O)NC2(CC2)C(=O)N[C@@H](CC(C)C)C(=O)N1)C(N)=O [compound 14] (Ac-F[R8]AYWE[Ac3c]L[S5]AA[Nle]-NH2; staple 2-9) ?
Reply text: 10 to 100 nM
